Assay: NCI Yeast Anticancer Drug Screen. Data for the mec2-1 strain (AID 157)
Details: S. cerevisiae mec2-1 strain, at 50.0 µM
Procedure: Growth inhibition of yeast strains with defined genetic alterations is measured as a screen for potential anti-cancer activity. Selected strains with alterations in DNA damage repair or cell cycle control were exposed to compounds and growth inhibition was measured relative to vehicle treated controls. The strain used in this assay is mec2-1
About 79,000 compounds went through this panel and 15% of them were active in at least one assay; those are over-represented in the sample as a whole. Active and inactive are the calls of the source. Rule as the data show it: active = growth inhibition above about 70%; inactive = the rest.
Log the outcome using a class from active, inactive

Per the records of this test, what outcome belongs to CC(C)(C)C(=O)N1C(C(=O)O)Cc2ccccc2[C@@H]1Cc1ccccc1 (some centres not stated) ?
inactive

Record request — test call for CCCc1ccc(OCC(=O)O)c(OC)c1
inactive

Please share the test call associated with Cc1cccc(C(C)C)c1NC(=O)C(=O)CC(=O)c1sc(Nc2ccccc2Cl)nc1C .
inactive

I would be grateful if you could indicate the recorded call for COc1ccc2nc(C)cc(N=[N+]=[N-])c2c1 .
inactive

Kindly provide the recorded test outcome for the following compound: Cc1ccccc1N=Cc1ccc(N(CCC#N)S(=O)(=O)c2ccccc2)cc1
inactive

Test call for this compound, please: OCC1CC1c1ccccc1 (configuration not stated)
inactive

What classification did C1=CCc2cc3c(cc2=C1)C=c1ccccc1=3 end up with in this test?
inactive

In this assay, the call recorded for COc1cc(N=Nc2c[nH]c3ccccc23)c(OC)cc1N=Nc1ccc([N+](=O)[O-])cc1 was what?
inactive

Please share the test call associated with COc1ccc(S(=O)(=O)O)cc1NC(=O)CC(=O)c1cccc([N+](=O)[O-])c1 .
inactive

Please indicate how the test categorized Cc1ccc2nc(Nc3ccc(Cl)cc3)cc(C(O)C3CCCCN3)c2c1 (configuration not stated) .
active

I would be grateful if you could indicate the recorded call for CO/N=C(\C(=O)OC(=NC1CCCCC1)NC1CCCCC1)c1csc(NC(c2ccccc2)(c2ccccc2)c2ccccc2)n1 .
inactive

In this assay, the call recorded for CC12CC(=O)Nc3ccccc3N1C(c1ccccc1)=NO2 (configuration not stated) was what?
inactive

What did the test return for COc1cc2nc(C(O)C(O)c3nc4cc(OC)c(OC)cc4[nH]3)[nH]c2cc1OC (configuration not stated) ?
inactive

Entry Cn1c(=O)oc2cc(C(O)CN3CCN(Cc4ccccn4)CC3)c(Cl)cc21 (configuration not stated) : call = ?
inactive

Which outcome was entered for the compound C=CC(C)n1cnc2c1c(=O)n(C)c(=O)n2C (configuration not stated) in this test?
inactive

Hi, do you know how N#CSCc1c(Cl)c(Cl)c(CSC#N)c(Cl)c1Cl came out in this test?
inactive

// return assay outcome for C[C@@]12C[C@@H](c3ccccc3O1)N1CCCSC1=N2
inactive

I'd appreciate the recorded outcome for CCCNC1=C(C(=O)OCC)C(=O)CO1 from this test.
inactive

Called result for CC1=COC(=O)[C@@H]2[C@@H](C)CC[C@@H]12
inactive

Test call, this compound: C/C(CC1SCCCS1)=C(/C)CC1SCCCS1
inactive

// param item: COc1ccc(CC2CC(Cc3ccc(OC)c(OC)c3)C(=O)O2)cc1OC (configuration not stated) ; yields the recorded call
inactive

Tell me the assay call for O=c1[nH]cc(NS(=O)(=O)O)c(=O)[nH]1 please.
inactive

Outcome logged for CCOC(=O)C1Cc2cc(C)c(C)cc2N(C)C1=O (configuration not stated) in this assay:
inactive

What did the test return for CC(C)CCC(C)c1ccncc1 (configuration not stated) ?
inactive

I would be grateful if you could indicate the recorded call for CC(=O)CC(=O)NC12CC3CC(CC(C3)C1)C2 .
inactive

State the result this test recorded for COC(=O)Cc1onc(-c2ccccc2)c1[N+](=O)[O-] .
inactive

# lookup: test call for O=C(O)C1C(Br)C(Br)C1C(=O)O (configuration not stated) (tested in a mixture with another compound)
inactive

Recorded call for Cc1ccc(Cc2ccccc2C(=O)O)cc1 ?
inactive

How did this test come out for O=C(O)CSc1ncnc2nc[nH]c12 ?
inactive

Given Nc1c(Cl)ncnc1Nc1ccc(O)cc1 , state the outcome it received in this test.
inactive

Short answer needed: outcome of this test for C[C@@H](O)[C@H](NSc1ccccc1[N+](=O)[O-])C(=O)NCCc1nc(-c2nc(C(=O)NCCCBr)cs2)cs1 ?
inactive

Tell me the assay call for N=C(N)Sc1cc(O)c2ccccc2c1O please.
inactive

Check the results log: what was the call for CCOC(=O)CNCc1ccc(Cl)c(Cl)c1 ?
inactive

What did this assay record as the result for CN(C)CCCN1CCc2c([nH]c3ccccc23)C1c1cccnc1 (configuration not stated) ?
inactive

Please let me know the test result on file for Cc1ccc(C2(C)CC/C(=N/N=C3/CCC(C)(c4ccc(C)c(C)c4)c4cc(C)c(C)cc43)c3cc(C)c(C)cc32)cc1C (configuration not stated) .
inactive

Assay result, entry COC(=O)C1OC2(CCCC3CC32)O[C@H]1C(=O)OC (some centres not stated) — outcome?
inactive

Each compound tested received a call. Report the one for CCOC(=O)/C(=C\c1cc(OC)ccc1OC)P(=O)(OCC)OCC .
inactive

Could you kindly confirm the outcome this assay logged for O=C(CN1C(=O)c2ccccc2C1=O)NCC(=O)N(C(=O)NC1CCCCC1)C1CCCCC1 ?
inactive

# fetch the recorded call for COc1ccccc1Nc1nc(N)nc(N)c1N=O here
inactive

Answer briefly: the call reported for O=C(N/N=C\c1ccc(Cl)cc1)c1ccccc1 in this assay.
inactive

What did the test return for CN(C(N)=O)C1CCCC1 ?
inactive

Per the records of this test, what outcome belongs to CC(=O)Nc1ccc(N=Nc2c(C)nn(C(=N)N)c2C)cc1 ?
inactive

Assay result, entry CCC(c1ccc(OC)cc1)c1cc2c(cc1OCC(=O)O)OCO2 (configuration not stated) — outcome?
inactive

What was the test verdict on NC(=S)N=Nc1c(O)[nH]c2c(Cl)cc(Cl)cc12 ?
inactive

What outcome does the record of this test show for CCN=C(N)CSS(=O)(=O)O ?
inactive

What is the recorded call for this compound in the test? COc1ccc(/C=C\c2cccc(Cl)c2)cc1
inactive

Please state the recorded outcome for this compound: Brc1cc(Br)c(-c2c(Br)cc(Br)cc2Br)c(Br)c1
inactive

# credit: PubChem BioAssay (NCI)
